// provenance: PubChem BioAssay AID504809

Assay: Followup screen for small molecules that induce DNA re-replication in MCF 10A normal breast cells
Settings: MCF 10A DNA re-replication, Hoechst nuclear intensity, 48 h; series mostly up to 46.1 µM
Excerpt: NIH Molecular Libraries Probe Production Network [MLPCN] NIH Chemical Genomics Center [NCGC] […] To identify compounds that induce re-replication in normal cells, an image-based assay was used to measure DNA content of nuclei, as detected by the fluorescent DNA binding dye, Hoechst. Cell nuclei were imaged by a fluorescence scanning plate imager and compounds that induce DNA re-replication were identified by the increase of nuclei with elevated fluorescence intensity. […]
Inconclusive results are not listed. Active and inactive are the calls of the source. Calls come from the whole dose curve; as a rule, active = well fitted curve in the direction sought with a large enough effect; inconclusive = small, poorly fitted or top-dose-only effect, or another doubt; inactive = no such curve, though single readings can be large or run the other way.
Bench note: report the call from TRUE (active), FALSE (inactive)

CCN(CC)C(=S)SSC(=S)N(CC)CC TRUE
CS(C)=O.[Cl-].[Cl-].[Cu+2] FALSE
CC(=O)[O-].CS(C)=O.[Cu+] FALSE

Query string: Fill in: this test's call for CCN(CC)C(=S)SSC(=S)N(CC)CC.[Cl-].[Cl-].[Cu+2] is ___
Result string: TRUE
